# ASSAYED_TARGET: N(G),N(G)-dimethylarginine dimethylaminohydrolase 1 (Homo sapiens, UniProt O94760)
# Sequence (O94760 whole entry): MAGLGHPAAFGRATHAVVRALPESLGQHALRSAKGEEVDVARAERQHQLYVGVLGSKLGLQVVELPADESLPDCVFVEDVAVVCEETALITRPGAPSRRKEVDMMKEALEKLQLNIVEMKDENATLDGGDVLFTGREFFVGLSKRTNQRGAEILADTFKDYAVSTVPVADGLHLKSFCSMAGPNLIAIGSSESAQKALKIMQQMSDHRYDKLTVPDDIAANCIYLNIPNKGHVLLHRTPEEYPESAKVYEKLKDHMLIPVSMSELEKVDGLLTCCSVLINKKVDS
# ASSAY_OVERVIEW: Inhibition of 6xHis-tagged recombinant human DDAH1 expressed in Escherichia coli BL21 cells using NMMA as substrate measured after 30 mins by colder reagent based microplate reader assay
Ki values, listed per item
ASSAY_ENDPOINT: Ki (µM)

{"SMILES_ENTRY": "CCCCCNC(=N)NCCOC", "ASSAY_ENDPOINT": "Ki", "VALUE_REPORTED": 2810}
{"SMILES_ENTRY": "C=CCC(=N)NCCCCN", "ASSAY_ENDPOINT": "Ki", "VALUE_REPORTED": 768}
{"SMILES_ENTRY": "COCCCC(=N)NCCC[C@H](N)C(=O)O", "ASSAY_ENDPOINT": "Ki", "VALUE_REPORTED": 156}
{"SMILES_ENTRY": "COCCC(=N)NCCCCN", "ASSAY_ENDPOINT": "Ki", "VALUE_REPORTED": 1450}

----------
inhibition values, listed per item
# ASSAYED_TARGET: Nitric oxide synthase 3 (Homo sapiens) (UniProt P29474)
# Sequence (whole entry): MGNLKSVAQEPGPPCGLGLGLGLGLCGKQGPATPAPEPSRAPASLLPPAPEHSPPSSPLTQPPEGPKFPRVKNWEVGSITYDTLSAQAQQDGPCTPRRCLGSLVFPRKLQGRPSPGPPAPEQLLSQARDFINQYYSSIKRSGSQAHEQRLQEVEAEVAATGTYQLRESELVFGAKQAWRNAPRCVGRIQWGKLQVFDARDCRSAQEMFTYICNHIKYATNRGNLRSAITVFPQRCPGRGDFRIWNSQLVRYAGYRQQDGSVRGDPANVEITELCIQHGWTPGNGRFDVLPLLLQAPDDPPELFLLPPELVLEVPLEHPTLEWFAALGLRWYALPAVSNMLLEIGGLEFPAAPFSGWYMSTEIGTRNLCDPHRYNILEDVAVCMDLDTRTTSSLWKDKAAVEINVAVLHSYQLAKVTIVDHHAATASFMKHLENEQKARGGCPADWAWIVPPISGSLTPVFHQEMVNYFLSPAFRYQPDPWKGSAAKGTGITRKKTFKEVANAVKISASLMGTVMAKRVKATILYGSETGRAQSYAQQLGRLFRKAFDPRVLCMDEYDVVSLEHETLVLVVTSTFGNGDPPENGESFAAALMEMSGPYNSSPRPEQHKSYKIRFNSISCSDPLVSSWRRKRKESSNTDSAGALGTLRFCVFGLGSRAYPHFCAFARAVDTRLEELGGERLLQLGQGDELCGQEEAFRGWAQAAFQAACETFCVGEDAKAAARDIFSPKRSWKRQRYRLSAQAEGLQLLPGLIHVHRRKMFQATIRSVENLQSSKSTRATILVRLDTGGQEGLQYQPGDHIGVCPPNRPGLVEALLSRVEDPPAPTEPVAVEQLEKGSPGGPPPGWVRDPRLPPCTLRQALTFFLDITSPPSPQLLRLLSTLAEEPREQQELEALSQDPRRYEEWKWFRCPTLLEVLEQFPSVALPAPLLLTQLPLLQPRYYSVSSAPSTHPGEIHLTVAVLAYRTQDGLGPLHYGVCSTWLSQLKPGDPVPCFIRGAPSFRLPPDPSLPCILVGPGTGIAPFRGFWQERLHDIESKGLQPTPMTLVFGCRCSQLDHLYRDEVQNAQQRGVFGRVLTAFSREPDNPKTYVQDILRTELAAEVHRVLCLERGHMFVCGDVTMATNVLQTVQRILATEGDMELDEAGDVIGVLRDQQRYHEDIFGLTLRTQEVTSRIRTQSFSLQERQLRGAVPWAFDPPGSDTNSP
# ASSAY_OVERVIEW: Inhibition of endothelial NOS (unknown origin) assessed as formation of methemoglobin from oxyhemoglobin at 1 mM using L-arginine as substrate in presence of oxyhemoglobin and NADPH by UV-vis spectrophotometry relative to control
ASSAY_ENDPOINT: inhibition (%)

{"SMILES_ENTRY": "COCCNC(=N)NCCCCC(=O)O", "READING_QUALIFIER": "=", "VALUE_REPORTED": 13}
{"SMILES_ENTRY": "COCCCC(=N)NCC[C@H](N)C(=O)O", "READING_QUALIFIER": "<", "VALUE_REPORTED": 20}
{"SMILES_ENTRY": "COCCC(=N)NCCC[C@H](N)C(=O)O", "READING_QUALIFIER": "=", "VALUE_REPORTED": 54}
{"SMILES_ENTRY": "COCCNC(=N)NCCC(C)C", "READING_QUALIFIER": "=", "VALUE_REPORTED": 19}
